src = patent US11952330B2

# System: S. aureus
# protocol-summary: MIC by broth dilution, S. aureus
# Assay type: cell-based
# study-conditions: Staphylococcus aureus; Mueller-Hinton broth, overnight 37° C.; Table 1; read-out: MIC (μg/mL) S. aureus

compound | MIC
CCCCCCCCOc1ccccc1C(=O)Nc1ccc(C(=O)OCC[N+](CC)(CC)CCCCCC)cc1.[Br-] | < 3 µg/mL
CC[N+](C)(CC)CCOC(=O)c1ccc(NC(=O)c2ccccc2OCCCCC(C)C)cc1.[Br-] | 3 to 30 µg/mL
CCCCCCCOc1ccccc1C(=O)Nc1ccc(C(=O)NC2CC[N+](C)(CC)CC2)cc1.[Br-] (stereo not shown) | > 30 µg/mL
CCCCCCCCOc1ccccc1C(=O)Nc1ccc(C(=O)N(C)CC[N+](CC)(CC)CCC)cc1.[Br-] | 3 to 30 µg/mL
